# target system: CaSla1-D3
# assay name: SPOT peptide array binding signal intensity (averaged, normalized) (arbitrary units (background-subtracted, floor 0; scale differs between SH3 domains)); higher = stronger binding of the SH3 domain to the peptide
Listed here: items and their measured SPOT peptide array binding signal intensity.
property name: SPOT peptide array binding signal intensity

{"columns": ["binder", "bound type", "observed value"],
 "data": [
  ["IKTRSVPKIPSIESV", "≤", 0],
  ["TIRRRAPLSLLESHT", "≤", 0],
  ["NFKRLLPRDPSEKSS", "=", 1],
  ["EEEEEHPPLPARRKS", "≤", 0],
  ["DFTLPPPPPPPGLDE", "≤", 0],
  ["GKFIPSRPAPKPPSS", "=", 14.5],
  ["RMVRRRPLRVQFSAR", "=", 700],
  ["AERNYAPRLPRRETS", "=", 0.75],
  ["YRRKSIPFAPHQITA", "=", 2.5],
  ["RTIRKLPLMSLSEYF", "=", 98.2],
  ["NRLRKRLNLPSEISI", "=", 3],
  ["RLPAPPPPPRRGPAP", "=", 20.2],
  ["TYNRTAFQIPGDQSI", "=", 1.5],
  ["ISRRRLPVIMHRLKM", "=", 99.8],
  ["RKNRAPPQRPRFNRE", "=", 15]
]}
